System: nude mice, LOX melanoma ip, survival T/C
Assay: NCI In Vivo Anticancer Drug Screen. Data for tumor model Human Amelanotic Melanoma (LOX) (intraperitoneal) in NU/NU BALB/C (nude) mice
Settings: endpoint: median survival time; dose: 400.0 mg/kg/injection; schedule: Q04DX003 (ip); vehicle: saline with Tween-80
Inconclusive results and toxic doses are left out. Rule for the calls: active = survival T/C of 150% or more; inactive = T/C below 125% in these data.
Hi there, use one of these labels in your reply, thanks! t = active, f = inactive

A selection of reference data follows.
- ClC1(Cl)Cc2ccccc21: f
- CNC(=O)N(C)N=NCCCl: t
- CCCCOCN(COCCCC)C12CC3CC(CC(C3)C1)C2: f
- COc1ccc2oc3c(ccc[n+]3C)c(=O)c2c1: f

Lab note: next compound to report on.
Data request: Hello, I am checking results. What call was entered for Cc1ccoc1 ?
Data returned: f
